molecular target: rat angiotensin 2 type 1 receptor (rat AT1aR) (Rattus norvegicus, UniProt P25095); assay: PathHunter β-arrestin-2 recruitment assay, rat AT1aR; format: cell-based; conditions: PathHunter β-arrestin HEK293 cells, read-out: rat AT1aR b-arrestin2 EC50
Sequence (P25095 whole entry): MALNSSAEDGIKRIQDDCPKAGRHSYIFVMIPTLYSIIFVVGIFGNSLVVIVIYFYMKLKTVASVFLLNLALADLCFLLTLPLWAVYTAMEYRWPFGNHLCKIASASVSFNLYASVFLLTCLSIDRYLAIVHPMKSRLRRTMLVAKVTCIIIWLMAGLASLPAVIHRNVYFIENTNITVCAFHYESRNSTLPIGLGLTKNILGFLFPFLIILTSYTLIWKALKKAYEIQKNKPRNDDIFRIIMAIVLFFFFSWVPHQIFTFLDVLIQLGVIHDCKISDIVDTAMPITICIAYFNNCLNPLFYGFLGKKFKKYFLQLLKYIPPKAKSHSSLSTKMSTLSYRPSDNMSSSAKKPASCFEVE
Sequence (P32121 whole entry partner): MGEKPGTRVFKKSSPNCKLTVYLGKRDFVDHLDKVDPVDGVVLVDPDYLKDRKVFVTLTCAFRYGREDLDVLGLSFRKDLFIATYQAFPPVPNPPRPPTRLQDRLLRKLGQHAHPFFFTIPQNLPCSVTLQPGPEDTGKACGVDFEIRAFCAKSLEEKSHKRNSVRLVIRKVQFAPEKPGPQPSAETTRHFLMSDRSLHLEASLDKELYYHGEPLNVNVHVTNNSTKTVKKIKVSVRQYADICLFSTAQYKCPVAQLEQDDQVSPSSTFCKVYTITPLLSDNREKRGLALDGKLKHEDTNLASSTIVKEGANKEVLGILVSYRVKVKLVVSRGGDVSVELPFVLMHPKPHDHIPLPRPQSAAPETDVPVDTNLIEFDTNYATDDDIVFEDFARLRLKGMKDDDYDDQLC
Non-standard residues stand in square brackets, D forms with d. Residues, ends and D or L forms follow the SMILES beside them. Sar = CNCC(=O)O
Parameter EC50: see the listing below.
reported metric: EC50

[[record]]
molecule = "CNCC(=O)N[C@@H](CCCNC(=N)N)C(=O)N[C@H](C(=O)N[C@@H](Cc1ccc(O)cc1)C(=O)N[C@@H](CCC(=O)O)C(=O)N[C@@H](Cc1c[nH]cn1)C(=O)N1CCC[C@H]1C(N)=O)C(C)C [SEQ ID NO:40, Sar-Arg-Val-Tyr-Glu-His-Pro-NH2] (H-[Sar]RVYEHP-NH2; N-terminus assumed)"
meas_value = "31 nM"

[[record]]
molecule = "CNCC(=O)N[C@@H](CCCNC(=N)N)C(=O)N[C@H](C(=O)N[C@@H](Cc1ccc(O)cc1)C(=O)N[C@@H](Cc1c[nH]cn1)C(=O)N[C@@H](Cc1c[nH]cn1)C(=O)N1CCC[C@H]1C(N)=O)C(C)C [SEQ ID NO:42, Sar-Arg-Val-Tyr-His-His-Pro-NH2] (H-[Sar]RVYHHP-NH2; N-terminus assumed)"
meas_value = "270 nM"

[[record]]
molecule = "CC[C@H](C)[C@H](NC(=O)[C@H](Cc1ccc(O)cc1)NC(=O)[C@@H](NC(=O)[C@H](CCCNC(=N)N)NC(=O)[C@@H](N)CC(=O)O)C(C)C)C(=O)N[C@@H](Cc1c[nH]cn1)C(=O)N1CCC[C@H]1C(=O)NCC(=O)O [SEQ ID NO:56] (H-DRVYIHPG-OH; N-terminus assumed)"
meas_value = "160 nM"

[[record]]
molecule = "CC[C@H](C)[C@H](NC(=O)[C@H](Cc1ccc(O)cc1)NC(=O)[C@@H](NC(=O)[C@H](CCCNC(=N)N)NC(=O)[C@@H](C)NC)C(C)C)C(=O)N[C@@H](Cc1c[nH]cn1)C(=O)N1CCC[C@H]1C(=O)N[C@@H](C)C(=O)O [SEQ ID NO:47]"
meas_value = "2100 nM"


---

molecular target: human angiotensin 2 type 1 receptor (human AT1R) (Homo sapiens, UniProt P30556); construct: expressed in transfected cells; test: IP1 accumulation assay (IP-One Tb), human AT1R; assay type: cell-based; conditions: cells expressing human AT1R
Sequence (P30556 whole entry): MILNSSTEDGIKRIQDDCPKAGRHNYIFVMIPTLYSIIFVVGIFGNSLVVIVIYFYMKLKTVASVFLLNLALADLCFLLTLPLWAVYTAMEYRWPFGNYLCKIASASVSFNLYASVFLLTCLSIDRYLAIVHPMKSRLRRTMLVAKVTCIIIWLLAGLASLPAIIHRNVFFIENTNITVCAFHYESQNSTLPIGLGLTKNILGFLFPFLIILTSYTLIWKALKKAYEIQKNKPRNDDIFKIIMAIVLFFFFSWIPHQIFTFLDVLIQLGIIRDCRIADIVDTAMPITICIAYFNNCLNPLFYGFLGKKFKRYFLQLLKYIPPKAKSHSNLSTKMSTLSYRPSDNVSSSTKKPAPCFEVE
reported metric: human AT1R IP One EC50 (M)

[[record]]
substance_smiles = "CNCC(=O)N[C@@H](CCCNC(=N)N)C(=O)N[C@H](C(=O)N[C@@H](Cc1ccc(O)cc1)C(=O)N[C@H](C(=O)N[C@@H](Cc1c[nH]cn1)C(=O)N1CCC[C@H]1C(=O)O)C(C)C)C(C)C"
meas_value = "inactive"

[[record]]
substance_smiles = "CC[C@H](C)[C@H](NC(=O)[C@H](Cc1ccc(O)cc1)NC(=O)[C@@H](NC(=O)[C@H](CCCCN)NC(=O)CNC)C(C)C)C(=O)N[C@@H](Cc1c[nH]cn1)C(=O)N1CCC[C@H]1C(=O)N[C@H](C)C(=O)O"
meas_value = "inactive"


---

Parameter rat AT1aR b-arrestin2 Max (%): see the listing below.
target: rat angiotensin 2 type 1 receptor (rat AT1aR) (Rattus norvegicus); experiment: PathHunter β-arrestin-2 recruitment assay, rat AT1aR; assay type: cell-based; conditions: PathHunter β-arrestin HEK293 cells
Non-standard residues stand in square brackets, D forms with d. Residues, ends and D or L forms follow the SMILES beside them. Sar = CNCC(=O)O
reported metric: rat AT1aR b-arrestin2 Max (%)

[[record]]
compound = "CC[C@H](C)[C@H](NC(=O)[C@H](Cc1ccc(O)cc1)NC(=O)[C@@H](NC(=O)[C@H](CCCNC(=N)N)NC(=O)CNC)C(C)C)C(=O)N[C@@H](Cc1c[nH]cn1)C(=O)N1CCC[C@@H]1C(N)=O"
system_name = "rat angiotensin 2 type 1 receptor (rat AT1aR) (Rattus norvegicus)"
reported_metric = "rat AT1aR b-arrestin2 Max (%)"
meas_value = 5.8

[[record]]
compound = "CC[C@H](C)[C@H](NC(=O)[C@H](Cc1ccc(O)cc1)NC(=O)[C@@H](NC(=O)[C@H](CCCNC(=N)N)NC(=O)[C@@H](C)NC)C(C)C)C(=O)N[C@@H](Cc1c[nH]cn1)C(=O)N1CCC[C@H]1C(=O)N[C@@H](C)C(=O)O"
system_name = "rat angiotensin 2 type 1 receptor (rat AT1aR) (Rattus norvegicus)"
reported_metric = "rat AT1aR b-arrestin2 Max (%)"
meas_value = 72.2

[[record]]
compound = "CNCC(=O)N[C@@H](CCCNC(=N)N)C(=O)N[C@H](C(=O)N[C@@H](Cc1ccc(O)cc1)C(=O)N[C@H](C(=O)N[C@@H](Cc1c[nH]cn1)C(N)=O)C(C)C)C(C)C [SEQ ID NO:55, Sar-Arg-Val-Tyr-Val-His-NH2] (H-[Sar]RVYVH-NH2; N-terminus assumed)"
system_name = "rat angiotensin 2 type 1 receptor (rat AT1aR) (Rattus norvegicus)"
reported_metric = "rat AT1aR b-arrestin2 Max (%)"
meas_value = 95.6

[[record]]
compound = "CNCC(=O)N[C@@H](CCCNC(=N)N)C(=O)N[C@H](C(=O)N[C@@H](Cc1ccc(O)cc1)C(=O)N[C@@H](Cc1ccccc1)C(=O)N[C@@H](Cc1c[nH]cn1)C(=O)N1CCC[C@H]1C(N)=O)C(C)C"
system_name = "rat angiotensin 2 type 1 receptor (rat AT1aR) (Rattus norvegicus)"
reported_metric = "rat AT1aR b-arrestin2 Max (%)"
meas_value = 53.1

[[record]]
compound = "CNCC(=O)N[C@@H](CCCNC(=N)N)C(=O)N[C@H](C(=O)N[C@@H](Cc1ccc(O)cc1)C(=O)N[C@@H](CCC(=O)O)C(=O)N[C@@H](Cc1c[nH]cn1)C(=O)N1CCC[C@H]1C(N)=O)C(C)C [SEQ ID NO:40, Sar-Arg-Val-Tyr-Glu-His-Pro-NH2] (H-[Sar]RVYEHP-NH2; N-terminus assumed)"
system_name = "rat angiotensin 2 type 1 receptor (rat AT1aR) (Rattus norvegicus)"
reported_metric = "rat AT1aR b-arrestin2 Max (%)"
meas_value = 87.9

[[record]]
compound = "CC[C@H](C)[C@H](NC(=O)[C@H](Cc1ccc(O)cc1)NC(=O)[C@@H](NC(=O)[C@H](CCCNC(=N)N)NC(=O)CNC)C(C)C)C(=O)N[C@@H](CCCCN)C(=O)N1CCC[C@H]1C(=O)N[C@H](C)C(=O)O [SEQ ID NO:50, Sar-Arg-Val-Tyr-Ile-Lys-Pro-D-Ala-OH] (H-[Sar]RVYIKP[dA]-OH; N-terminus assumed)"
system_name = "rat angiotensin 2 type 1 receptor (rat AT1aR) (Rattus norvegicus)"
reported_metric = "rat AT1aR b-arrestin2 Max (%)"
meas_value = 85.6

[[record]]
compound = "CNCC(=O)N[C@@H](CCCNC(=N)N)C(=O)N[C@H](C(=O)N[C@@H](Cc1ccc(O)cc1)C(=O)N[C@@H](Cc1ccc(O)cc1)C(=O)N[C@@H](Cc1c[nH]cn1)C(=O)N1CCC[C@H]1C(=O)O)C(C)C"
system_name = "rat angiotensin 2 type 1 receptor (rat AT1aR) (Rattus norvegicus)"
reported_metric = "rat AT1aR b-arrestin2 Max (%)"
meas_value = 83.8

[[record]]
compound = "CC[C@H](C)[C@H](NC(=O)[C@H](Cc1ccc(O)cc1)NC(=O)[C@@H](NC(=O)[C@H](CCCCN)NC(=O)CNC)C(C)C)C(=O)N[C@@H](Cc1c[nH]cn1)C(=O)N1CCC[C@H]1C(=O)N[C@H](C)C(=O)O"
system_name = "rat angiotensin 2 type 1 receptor (rat AT1aR) (Rattus norvegicus)"
reported_metric = "rat AT1aR b-arrestin2 Max (%)"
meas_value = 52.9


---

target: human angiotensin 2 type 1 receptor (human AT1R) (Homo sapiens); assay: PathHunter β-arrestin-2 recruitment assay, human AT1R; format: cell-based; details: PathHunter β-arrestin HEK293 cells
Sequence (P30556 whole entry): as above
Sequence (P32121 whole entry partner): as the sequence (P32121 whole entry partner) above
Non-standard residues stand in square brackets, D forms with d. Residues, ends and D or L forms follow the SMILES beside them. Sar = CNCC(=O)O
Short version: human AT1R b-arrestin2 Max (%) at least 60% is condition met, less is condition not met.

[[record]]
compound = "CC[C@H](C)[C@H](NC(=O)[C@H](Cc1ccc(O)cc1)NC(=O)[C@@H](NC(=O)[C@H](CCCCN)NC(=O)CNC)C(C)C)C(=O)N[C@@H](Cc1c[nH]cn1)C(=O)N1CCC[C@H]1C(=O)N[C@H](C)C(=O)O [SEQ ID NO:49, Sar-Lys-Val-Tyr-Ile-His-Pro-D-Ala-OH]"
group_label = "condition met"

[[record]]
compound = "CNCC(=O)N[C@@H](CCCNC(=N)N)C(=O)N[C@H](C(=O)N[C@@H](Cc1ccc(O)cc1)C(=O)N[C@H](C(=O)N[C@@H](Cc1c[nH]cn1)C(N)=O)C(C)C)C(C)C [SEQ ID NO:55, Sar-Arg-Val-Tyr-Val-His-NH2] (H-[Sar]RVYVH-NH2; N-terminus assumed)"
group_label = "condition met"

[[record]]
compound = "CC[C@H](C)[C@H](NC(=O)[C@H](Cc1ccc(O)cc1)NC(=O)[C@@H](NC(=O)[C@H](CCCNC(=N)N)NC(=O)CNC)C(C)C)C(=O)N[C@@H](Cc1c[nH]cn1)C(=O)N1CCC[C@@H]1C(N)=O [SEQ ID NO:51, Sar-Arg-Val-Tyr-Ile-His-D-Pro-NH2]"
group_label = "condition not met"

[[record]]
compound = "CC[C@H](C)[C@H](NC(=O)[C@H](Cc1ccc(O)cc1)NC(=O)[C@@H](NC(=O)[C@H](CCCNC(=N)N)NC(=O)[C@@H](N)CC(=O)O)C(C)C)C(=O)N[C@@H](Cc1c[nH]cn1)C(=O)N1CCC[C@H]1C(=O)NCC(=O)O [SEQ ID NO:56] (H-DRVYIHPG-OH; N-terminus assumed)"
group_label = "condition met"

[[record]]
compound = "CC[C@H](C)[C@H](NC(=O)[C@H](Cc1ccc(O)cc1)NC(=O)[C@@H](NC(=O)[C@H](CCCNC(=N)N)NC(=O)CNC)C(C)C)C(=O)N[C@@H](CCCCN)C(=O)N1CCC[C@H]1C(=O)N[C@H](C)C(=O)O [SEQ ID NO:50, Sar-Arg-Val-Tyr-Ile-Lys-Pro-D-Ala-OH] (H-[Sar]RVYIKP[dA]-OH; N-terminus assumed)"
group_label = "condition not met"

[[record]]
compound = "CNCC(=O)N[C@@H](CCCNC(=N)N)C(=O)N[C@H](C(=O)N[C@@H](Cc1ccc(O)cc1)C(=O)N[C@@H](CCCCN)C(=O)N[C@@H](Cc1c[nH]cn1)C(=O)N1CCC[C@H]1C(N)=O)C(C)C [SEQ ID NO:43, Sar-Arg-Val-Tyr-Lys-His-Pro-NH2] (H-[Sar]RVYKHP-NH2)"
group_label = "condition not met"

[[record]]
compound = "CNCC(=O)N[C@@H](CCCNC(=N)N)C(=O)N[C@H](C(=O)N[C@@H](Cc1ccc(O)cc1)C(=O)N[C@@H](CCC(=O)O)C(=O)N[C@@H](Cc1c[nH]cn1)C(=O)N1CCC[C@H]1C(N)=O)C(C)C [SEQ ID NO:40, Sar-Arg-Val-Tyr-Glu-His-Pro-NH2] (H-[Sar]RVYEHP-NH2; N-terminus assumed)"
group_label = "condition not met"


The reported measurements were obtained from patent US8486885B2.
